TGI values for the compounds below.
- System: UO-31 renal
- measurementNotes: NCI tumour cell line growth inhibition, 48 h
assayReadout: TGI

>>> assayvalue("CC(C)(Br)C(Br)CCC(C)(Br)C(Br)CO (centres undefined)")
"> 10 µM"
>>> assayvalue("CC(C)[C@H]1CO[C@]2(C)[C@@H]3CN(Cc4ccccc4)C[C@@H]3C(=O)N12")
"> 100 µM"
>>> assayvalue("O=C1[C@H]2ON(c3ccccc3)C(c3ccccc3Cl)[C@H]2C(=O)N1c1ccc(Cc2ccc(N3C(=O)[C@@H]4ON(c5ccccc5)C(c5ccccc5Cl)[C@@H]4C3=O)cc2)cc1 (some centres undefined)")
"> 100 µM"
>>> assayvalue("COc1ccc(/C=C2\\CCCC3=C2N=C2SC(C)=NN2C3c2ccc(OC)c(OC)c2)cc1OC (centres undefined)")
"43.9 µM"
>>> assayvalue("COc1cccc(-c2c(C#N)c(N)nc3c2CCS(=O)(=O)c2ccc(C)cc2-3)c1")
"> 100 µM"
>>> assayvalue("C=CCOc1ccc(/C(N=Nc2ccc([N+](=O)[O-])cc2)=N/NC(=O)c2ccccc2)cc1OC")
"> 100 µM"
>>> assayvalue("CCSCCC(N)C(=O)O (centres undefined)")
"> 100 µM"
>>> assayvalue("CC1OC(O[C@@H]2OC=C(C=O)[C@@]3(O)CC[C@H](C)[C@@H]23)C(O)C(O)C1O (some centres undefined)")
"> 100 µM"
>>> assayvalue("O=C1c2ccccc2S(=O)(=O)c2c1cccc2[N+](=O)[O-]")
"3.92 µM"
>>> assayvalue("Nc1ccn(CCNCCn2cnc3nc(N)[nH]c(=O)c32)c(=O)n1")
"> 100 µM"
>>> assayvalue("CCOP(=O)(OCC)C1CC(O)C(=O)N1 (centres undefined)")
"> 100 µM"
>>> assayvalue("CS(=O)(=O)N1CC(CCl)c2ccc([N+](=O)[O-])cc21 (centres undefined)")
"> 100 µM"
>>> assayvalue("COC(=O)C1=CC2CCCC1(O)C(C(C)=O)C2 (centres undefined)")
"38.6 µM"
>>> assayvalue("O=C(CN1CCOCC1)Nc1nc(-c2ccc(Cl)cc2)cs1")
"67 µM"
>>> assayvalue("C=CCC[CH2][Sn]([c]1ccccc1)([c]1ccccc1)[c]1ccccc1")
"3.36 µM"
>>> assayvalue("COc1cc(OC(C)=O)cc2c(OC(C)=O)ccc(OC(C)=O)c12")
"> 100 µM"
>>> assayvalue("Cc1ccc(NC(=O)C(=O)C(C#N)c2ccccc2C)cc1C (centres undefined)")
"> 100 µM"
>>> assayvalue("CC1CNc2ccccc2N=C1NN (centres undefined)")
"> 100 µM"
>>> assayvalue("COc1cccc(-n2ncc3c(N/N=C/c4ccc(C(=O)NCCN(C)C)cc4)ncnc32)c1")
"5.88 µM"

// data source = PubChem BioAssay (NCI)
